Numbers sourced from patent US11807625B2.

Assay: PK of compound of Formula (Ia) after single subcutaneous dose of solution formulations in Wistar Han rats
Format: in vivo
Conditions: male, Wistar Han, rat, plasma, sc, 50 mg/kg, 3024 h; mean, n = 5 rats; SC 50 mg/kg; solution U, 500 mg/mL
quantity name: concentration at 3024 h (nM)
Entry rule: numbers only, all in nM.

Ask: So what does the record say about concentration at 3024 h for CC(C)(C#Cc1ccc(-c2ccc(Cl)c3c(NS(C)(=O)=O)nn(CC(F)(F)F)c23)c([C@H](Cc2cc(F)cc(F)c2)NC(=O)Cn2nc(C(F)(F)F)c3c2C(F)(F)[C@@H]2C[C@H]32)n1)S(C)(=O)=O ?
Reply: 102

---

Test: PK of compound of Formula (Ia) after single subcutaneous dose of solution formulations in Wistar Han rats
Type: in vivo
Conditions: male, Wistar Han, rat, plasma, sc, 50 mg/kg, Wistar Han rats, SC 50 mg/kg, 500 mg/mL solution X (5.00% ethanol, 1.91% poloxamer 188), 8.00 h, animals #1-#3
quantity name: concentration at 8 h (nM)
Answer with a number only, understood to be in nM.

Ask: // lookup concentration at 8 h for CC(C)(C#Cc1ccc(-c2ccc(Cl)c3c(NS(C)(=O)=O)nn(CC(F)(F)F)c23)c([C@H](Cc2cc(F)cc(F)c2)NC(=O)Cn2nc(C(F)(F)F)c3c2C(F)(F)[C@@H]2C[C@H]32)n1)S(C)(=O)=O
Reply: 115

---

Experiment: PK of compound of Formula (Ia) after single subcutaneous dose of solution formulations in beagle dogs
Assay type: in vivo
Settings: male, beagle, dog, plasma, sc, 12 mg/kg, 72.0 h; individual dogs; SC 12 mg/kg; solution U, 500 mg/mL
quantity name: concentration at 72 h (nM)
Numbers only; they are read as nM.

Ask: // returns reported concentration at 72 h for input CC(C)(C#Cc1ccc(-c2ccc(Cl)c3c(NS(C)(=O)=O)nn(CC(F)(F)F)c23)c([C@H](Cc2cc(F)cc(F)c2)NC(=O)Cn2nc(C(F)(F)F)c3c2C(F)(F)[C@@H]2C[C@H]32)n1)S(C)(=O)=O
Reply: 49.4

---

Experiment: PK of compound of Formula (Ia) after single subcutaneous dose of solution formulations in Wistar Han rats
Format: in vivo
Settings: male, Wistar Han, rat, plasma, sc, 50 mg/kg, 1334 h; mean, n = 3 rats; SC 50 mg/kg; solution S, 500 mg/mL
quantity name: concentration at 1334 h (nM)
Numeric answer only, unit nM assumed.

Ask: Please report the recorded concentration at 1334 h for CC(C)(C#Cc1ccc(-c2ccc(Cl)c3c(NS(C)(=O)=O)nn(CC(F)(F)F)c23)c([C@H](Cc2cc(F)cc(F)c2)NC(=O)Cn2nc(C(F)(F)F)c3c2C(F)(F)[C@@H]2C[C@H]32)n1)S(C)(=O)=O .
Reply: 300

---

Experiment: PK of compound of Formula (Ia) after single subcutaneous dose of solution formulations in Wistar Han rats
Assay type: in vivo
Settings: male, Wistar Han, rat, plasma, sc, 50 mg/kg, 504 h; individual rats; SC 50 mg/kg; solution S, 500 mg/mL
quantity name: concentration at 504 h (nM)
Give the quantity in nM, number only.

Ask: // returns reported concentration at 504 h for input CC(C)(C#Cc1ccc(-c2ccc(Cl)c3c(NS(C)(=O)=O)nn(CC(F)(F)F)c23)c([C@H](Cc2cc(F)cc(F)c2)NC(=O)Cn2nc(C(F)(F)F)c3c2C(F)(F)[C@@H]2C[C@H]32)n1)S(C)(=O)=O [compound of Formula (Ia)]
Reply: 415
